- experiment.description: DMS-53 xenograft oral study: body and organ weights, haematology, biochemistry, histology
- Format: in vivo, nude mice (BALBc nu/nu)
- condition.details: oral gavage 21 days, 10 mg/kg
experimental.endpoint: Haematocrit (HCT) (%)
// return numeric value only (unit: %, not printed)

Record CCN(C)C(=S)NN=C(c1ccccn1)c1ccccn1 . Reported Haematocrit (HCT): 44

====

Would you mind telling me the reported IC50 of each entry?
- Test system: CFPAC-1 pancreatic cancer cells
- experiment.description: MTT proliferation assay, CFPAC-1
- Assay type: cell-based
- condition.details: Homo sapiens; CFPAC-1, MTT, 72 h
- Source text: The pancreatic cancer cell lines, including MIAPaCa-2, PANC 1, CAPAN-2 and CFPAC-1 were a generous gift from Prof. Andrew Biankin (Garvan Institute, NSW, Australia). […] Table 2A. […] Growth and antiproliferative activity IC50 (μM) values of Dp4cycH4mT in a variety of pancreatic cell lines and in comparison to DFO and the clinically used drugs gemcitabine and 5-fluorouracil as determined by the MTT assay. […]

CFPAC-1 pancreatic cancer cells assay, compound O=c1[nH]cc(F)c(=O)[nH]1 , recorded IC50 = 41.2 µM

The observed IC50 for CC(=O)N(O)CCCCCNC(=O)CCC(=O)N(O)CCCCCNC(=O)CCC(=O)N(O)CCCCCN when tested with CFPAC-1 pancreatic cancer cells stands at 14.7 µM

# value of IC50, CFPAC-1 pancreatic cancer cells, item CN(C(=S)NN=C(c1ccccn1)c1ccccn1)C1CCCCC1 = 0.4 µM

Form field, IC50 with CFPAC-1 pancreatic cancer cells, item Nc1ccn([C@@H]2O[C@H](CO)[C@@H](O)C2(F)F)c(=O)n1 : 0.02 µM
